Tested on: SW 982 tumor spheroid viability
assay.procedure: Anticancer human tumor SW 982 cell line growth inhibition;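 further: spheroids exposed to compound for 7 days before readout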
test.parameters: second compound 0.00949 µM; first compound 0.316 µM; hits give low values; spheroids with HUVEC and MSC
parameter: viability, T/C (%)
One number for each entry, in %.

# annotated cases, reported viability, T/C shown
molecule | parameter | measure.unit | endpoint.result
Cc1cc(C)c(CNC(=O)c2cc(-c3ccc(CN4CCOCC4)cc3)cc3c2cnn3C2CCCC2)c(=O)[nH]1 + CC[C@@]1(O)C(=O)OCc2c1cc1n(c2=O)Cc2cc3c(CN(C)C)c(O)ccc3nc2-1 | viability, T/C | % | 86.5
COc1cc(C)[nH]c(=O)c1CN1CCc2c(Cl)cc(C(OC)C3COC3)c(Cl)c2C1=O (stereo unspecified) + CC[C@@]1(O)C(=O)OCc2c1cc1n(c2=O)Cc2cc3c(CN(C)C)c(O)ccc3nc2-1 | viability, T/C | % | 75.1
[2H]c1nc(C)nc([2H])c1-c1cc(NC[C@@H](C)c2cccc3c(C(=O)NC)ccnc23)ncn1 + CC[C@@]1(O)C(=O)OCc2c1cc1n(c2=O)Cc2cc3c(CN(C)C)c(O)ccc3nc2-1 | viability, T/C | % | 89.2
CC(C)n1c(=O)n(C)c2cnc3cc(F)c(-c4ccc(OCCCN5CCCCC5)nc4)cc3c21 + CC[C@@]1(O)C(=O)OCc2c1cc1n(c2=O)Cc2cc3c(CN(C)C)c(O)ccc3nc2-1 | viability, T/C | % | 64
COc1ccc([C@@H](O)c2cc(-c3ncnc4cc(N5CCOCC5)ccc34)c(F)cc2Cl)nn1 + CC[C@@]1(O)C(=O)OCc2c1cc1n(c2=O)Cc2cc3c(CN(C)C)c(O)ccc3nc2-1 | viability, T/C | % | 80.7

From here, focus on the item given below.
[in] Look up viability, T/C for this molecule: CC1COCCN1c1cc(-c2ccnn2C)c2ccnc(-c3ccn[nH]3)c2n1 (stereo unspecified) + CC[C@@]1(O)C(=O)OCc2c1cc1n(c2=O)Cc2cc3c(CN(C)C)c(O)ccc3nc2-1
[out] 10.3

Values compiled from PubChem BioAssay AID1845216.
